Test system: c-Abl (mouse)
ASSAY_SUMMARY: phosphorylation enrichment, bacterial display (enrichment ratio); higher = better substrate or ligand; peptides without Tyr show the background;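 also: 11-residue human phosphosite peptides and single-mutation variants displayed on the E. coli surface, counted by deep sequencing, each peptide's frequency after selection divided by its frequency in the unselected input library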;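 also: frequency after pTyr selection over input frequency; kinase dosed for 20-30% of maximal phosphorylation in three min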
Listed here: items and their measured phosphorylation enrichment.
EXPERIMENTAL_READOUT: phosphorylation enrichment

* KSDVMYTDWKK [ORM1_Y175_V174M] | 0.689
* SVTCTYSPDLN [TP53_Y126_A129D] | 0.915
* IDGLEYLHSPG [STK11_Y166_Q170P] | 0.5
* NVADHYGVYKP [ATP6V0D2_Y271] | 0.587
* FVHDNYVIWRT [CPS1_Y1450_R1453W] | 1.14
* AMGAVYQAAAL [HYOU1_Y421] | 0.98
* IFCIQYNIRAF [MYH4_Y820] | 1.35
* EEKKKYFDAKI [CASP5_Y103_T106A_YF] | 0.58
* NSGFFYKTAEE [CCT6B_Y250] | 0.888
* KRLAVYQAGAR [APOE_Y180] | 0.398
* ITRDIYETDFF [INSR_Y1185_M1180I_YF] | 0.698
* INMKKYCKKDF [NTN1_Y490_YF] | 0.734
* LSQDVYEEDSY [RET_Y900_R897Q] | 1.13
* FQRITYHNWRH [PDE6B_Y556_R552Q_YF] | 0.487
* SSYDTYHLSRE [KIR3DL2_Y253_I252T] | 0.657
* HYPDVYAREQL [ALX3_Y181] | 0.511
* IGVDSYSVCKR [RPS6KA3_Y433_G431D] | 0.417
* EKLQQYLAPGM [EPHB3_Y600_I601L] | 0.732
* IRQDHYESLKE [MTR_Y921] | 0.56
* PEFVVYKPQME [CCRL2_Y170] | 1.42
* SNMPTYSGHFS [GRIN2A_Y1224_T1229S] | 0.684
* RIGRKYKKVRF [F8_Y442] | 0.298
* RALCHYYKLNI [ETV6_Y401_R399C] | 2.78
* TSSAIYMNLAS [GATAD2B_Y317] | 3.29
* GAMGHYVLAER [HFE_Y342] | 0.505
* ALCHFYKLNII [ETV6_Y402_R399C_YF] | 0.833
* KVGNEYITKGQ [MYH7_Y410_V411I] | 0.564
* PLFSKYWPNHI [GREB1L_Y1560_R1558S_YF] | 1.47
* STEAIYRRYSK [SH3PXD2B_Y42] | 0.709
* EFISESCGEII [EZH2_Y641_Y641S] | 0.783
* TNYSLYLRSLE [MTM1_Y71_R69S] | 0.574
* GKSDPYHATSG [GJA1_Y247] | 0.527
* FAFQLYDLDRD [CHP2_Y123_YF] | 0.823
* PGVNYYFQVSA | 1.48
* HFVDEYDLTIE [KRAS_Y32_P34L] | 1.4
* LNTFHYAGVSA [POLR2A_Y1109] | 0.552
* CTTIHYNYMCD [TP53_Y234_N239D] | 0.545
* WVYNHYRCIIW [BRCA2_Y2624_W2626C] | 1.18
* VSRGRYRPEEC [B4GALT4_Y113_Q116E] | 0.568
* GMEIVYVYVKK [DNAI2_Y5] | 0.813
* ETKTPYTVILI [SBDS_Y128_R126T] | 0.651
* DAVAVYHGKIS [SH2D1A_Y7] | 0.51
* LCHELYNTIRD [PBRM1_Y54_V49L] | 0.929
* KILAKYLLETS [NAMPT_Y175] | 0.571
* GKMSQYLESMQ [CYB5R3_Y130] | 0.548
* LGGSPYPGVPV [FGFR1_Y701] | 0.675
* LLGFLYFFVCS [SLC34A2_Y109] | 2.89

* * *

Listed here: items and their measured phosphorylation enrichment.
System: c-Src
ASSAY_SUMMARY: phosphorylation enrichment, bacterial display (enrichment ratio); higher = better substrate or ligand; peptides without Tyr show the background
EXPERIMENTAL_READOUT: phosphorylation enrichment

* VHKKGYNKLNQ [ZNF676_Y98_E96K] | 0.488
* LGNIVYSSLCG [BCOR_Y90_P85L] | 5.82
* YETSHYPASPD [CTNND2_Y1217] | 0.489
* STEAIYWRFSK [SH3PXD2B_Y42_R43W_YF] | 2.98
* SVTCTYSPDLN [TP53_Y126_A129D] | 0.563
* DPHKIYEFVNS [IRF3_Y107] | 8.03
* SVVVPHEPPEV [TP53_Y220_Y220H] | 0.396
* SHTPSYCDESL [RITA1_Y109] | 0.403
* VSVVDYVEPSP [TXNRD2_Y70_A66S] | 0.489
* INMKKYCKKDF [NTN1_Y490_YF] | 0.491
* SSYSRYIMMPN [LEF1_Y114_G113R] | 0.518
* ILTLKYPIELG [ACTA1_Y71_H75L] | 0.352
* CLGNQYVNVMN [SLC3A1_Y461_R456C] | 0.437
* THEVRYISAGQ [SLCO4A1_Y77_V78I] | 0.418
* FIPSNYVAEDR [FRK_Y104_YF] | 0.42
* QMVDMYASSFM [AVPR2_Y124_G122D_YF] | 2.34
* LERFIYNREEF [HLA-DPB1_Y59_F64Y_YF] | 2.07
* AFPGEYIPTVF [RAC1_Y32] | 0.476
* FPDFVYKRIKA [DPYSL2_Y479] | 0.344
* DDLTDYLMKIL [ACTA1_Y190_R185D] | 0.548
* FQRITYHNWRH [PDE6B_Y556_R552Q_YF] | 0.417
* AAILGYCHGEA [XPC_Y669_R671H] | 0.373
* LLILEYAKFGS [RET_Y806_V804L_YF] | 0.976
* RRVPVYGGRGA [QDPR_Y16_L14P] | 1.15
* TVINKYQGKLF [HGD_Y249] | 0.449
* VFGVSYDEYRY [CFTR_Y512_I507V] | 1.31
* FAFQLYDLDRD [CHP2_Y123_YF] | 2.17
* VAFLFYKSIGP [ADGRL4_Y302_V300L_YF] | 0.558
* KSVSQYLEMDK [CAGE1_Y438] | 0.406
* LLNPSYNLPLD [TOM1L1_Y109_R108S] | 0.523
* VKFLGYPPPEI [KDR_Y357_A352V_YF] | 0.371
* CTNPRYLAAGS [RABL3_Y185] | 0.467
* YVGGFYGGCNE [CTSC_Y352] | 0.786

* * *

Test system: Fer (mouse)
ASSAY_SUMMARY: phosphorylation enrichment, bacterial display (enrichment ratio); higher = better substrate or ligand; peptides without Tyr show the background
Listed here: items and their measured phosphorylation enrichment.
EXPERIMENTAL_READOUT: phosphorylation enrichment

- SGLDSYVRSLP [TRAPPC1_Y133_R129G]: 0.445
- SAGSSYSISSI [PAX5_Y179_G183S]: 0.385
- HGEAFYSEVKP [PAK5_Y182_YF]: 12.3
- DDPRTYQKFGF [OAS1_Y362_R361T_YF]: 0.423
- FADIAYSYRHG [PAH_Y166_N167S]: 0.453
- WIPIQYLIISE [NOG_Y222_P223L]: 0.666
- QWRTKYETDTI [MYH7_Y1375_A1379T]: 0.5
- EYKDAYTFAAD [BRDT_Y335_K336T]: 0.555
- DVFRQYASLTG [GANAB_Y379]: 0.417
- SSPVPYLSPET [TJP1_Y931]: 0.453
- WGLRSYYETSK [MAGED2_Y448]: 0.464
- KVKGEYDMTVP [AHNAK_Y964]: 0.637
- RPQDGFRIVQH [PTPRT_Y1329_Y1329F]: 0.417
- NTEGGYRCICA [CRELD1_Y328]: 0.498
- ISKKHYAGLLF [POLD1_Y809_R808H]: 0.469
- LKRCQYVTEKV [ALDOA_Y204]: 0.794
- NTYEKYWPFYQ [GATM_Y103]: 1.92
- KTVQDYLEKFF [MMP8_Y36_YF]: 0.485
- EKLQQYLAPGM [EPHB3_Y600_I601L]: 0.54
- GGPAGYLRRAS [PKLR_Y38]: 0.377
- IHYPPYTDWNQ [ALDH3B2_Y365]: 2.21
- KKHIPYKEHKS [CSNK1G1_Y205_R206K]: 1.2
- RSHRSYSCQVM [IGLL1_Y192_R189H]: 0.416
- KVGNEYITKGQ [MYH7_Y410_V411I]: 0.315
- GEHSIYSTVNN [CD55_Y266_C267S]: 14.5
- FRDMDYRSFPR [RBM10_Y41_YF]: 0.346
- GEIQEYGAPLD [ABCC1_Y1508_S1512L]: 0.528
- TVFENYVADIK [RHOA_Y42_E47K]: 0.495
- ENFSEYQEIAV [HEMGN_Y150]: 1.4
- IIRFNYLLDVL [FGFR4_Y237_S232I_YF]: 0.47
- GDFSRYDEGSG [RECQL5_Y484]: 0.439
- DVAKEYGHLLP [HRC_Y99_S96A]: 0.403
- VDDQIYFFRKP [PBRM1_Y1289_E1287Q_YF]: 0.728
- LAAAGYDVKKN [H1-3_Y72_E75K]: 0.305
- YAFQLYDLDPD [CHP2_Y123_R127P]: 0.916
- KSDVMYTDWKK [ORM1_Y175_V174M]: 0.463
- ITLPIYTKGSE [ANK2_Y1455_E1458G]: 0.451
